# System: MC3T3-E1
# Experiment Summary: Induction of osteogenesis in mouse MC3T3-E1 cells assessed as osteocalcin secretion at 25 uM after 3 weeks
# Type: functional, cell-based
# Test Settings: MC3T3-E1, 504 h
pEC50: −log10 of the molar value.
Quantity Name: pEC50

I: COc1cc2nccc(Oc3ccc4c(C(=O)Nc5ccc(C)cc5)cccc4c3)c2cc1OC
II: COc1cc2nccc(Oc3ccc4c(NC(=O)c5ccc(C)cc5)cccc4c3)c2cc1OC
query: Which gives the smaller pEC50 number: I or II ? Label of pick, please.
result: II
